biological target: Kelch-like ECH-associated protein 1 (Keap1) (human, UniProt Q14145 321-609, limits assumed); assay: plate binding assay: immobilised Keap1, FLAG-tagged binder titrated, HRP anti-FLAG detection, 1:1 isotherm fit
Sequence (Q14145 321-609 limits assumed): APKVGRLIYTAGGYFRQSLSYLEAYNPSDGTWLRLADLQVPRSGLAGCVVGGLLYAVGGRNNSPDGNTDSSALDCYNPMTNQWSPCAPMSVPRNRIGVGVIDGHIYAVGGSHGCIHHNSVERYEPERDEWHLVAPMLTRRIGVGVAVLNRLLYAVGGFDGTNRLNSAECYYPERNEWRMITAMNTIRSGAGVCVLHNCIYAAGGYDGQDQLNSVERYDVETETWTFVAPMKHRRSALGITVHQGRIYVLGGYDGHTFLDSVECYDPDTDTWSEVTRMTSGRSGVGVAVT
Starred links: 1 amine or outer side, 2 acyl side, 3 side chain; linkers in the order of their positions; H or OH if unused. Positions of bridges follow the written chain, without caps; N, C: chain ends. Non-standard residues stand in square brackets, D forms with d. No end group written: not given here. O2beY = O-(2-bromoethyl)-tyrosine (p-2beF), reacts with Cys to form a thioether, O=C([C@H](Cc1ccc(OCCBr)cc1)N[*:1])[*:2]
Give Kd for every item shown.
Numbers only, in nM.

Look at each binder and report its Kd.
1. DYKDDDDKGSGS[O2beY]DSETGECQQQQQQ-{Fc-H6} (Fc fusion, thioether 13-20; also: dimeric through the Fc, Cyclic peptide fused through a (Gln)6 spacer to human IgG1 Fc; dimeric through the Fc; made in E. coli; also called FLAG-(GS)2-ZDSETGEC-(Q)6-(Fc)^1-H6) [KKD-m1-Tras-Fc]
2. [O2beY]DSETGEC (thioether 1-8; also: as CBD fusion) [cyclic peptide KKD-m1 alone (as CBD fusion)]

[4, 85]

Attribution: patent US20250197448A1
